- target.of.assay: PDL1, Q9NZQ7
- Sequence (Q9NZQ7 whole entry): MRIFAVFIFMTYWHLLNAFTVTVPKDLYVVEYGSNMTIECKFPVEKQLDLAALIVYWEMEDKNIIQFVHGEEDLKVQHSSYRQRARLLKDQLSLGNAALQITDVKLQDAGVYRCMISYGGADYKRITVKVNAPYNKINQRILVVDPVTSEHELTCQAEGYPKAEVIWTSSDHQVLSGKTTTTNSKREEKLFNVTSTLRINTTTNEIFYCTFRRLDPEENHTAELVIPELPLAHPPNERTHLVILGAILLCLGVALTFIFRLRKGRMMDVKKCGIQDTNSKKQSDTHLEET
Labels: active, inactive

{"columns": ["binder", "class.name"],
 "data": [
  ["d8r1_design_ppi_679_dldesign_0_cycle0_af2pred (protein) AAAAARAAIVDETIARIRAELASRPSLAAFAESVLRRGLALGNEAEAARNVAAMLEAAGATAAAAVAREAAARIEAL", "inactive"],
  ["d8r1_design_ppi_1102_dldesign_0_cycle1_af2pred (protein) DAVREAGVAAAQAIKVALDEGDKELANAVSEAARAAVADPALAPLVKEGAELIIDPEKREQGRELVEKAVAAYKAAQ", "inactive"],
  ["d8r1_design_ppi_869_dldesign_0_cycle1_af2pred (protein) SEEAQAAVRFARNLLEVARLRAEEDPARGRAIAANLEVAARTLAEKHAGLPEAEELRRLAAEAAALAAELA", "active"],
  ["d8r1_design_ppi_1038_dldesign_0_cycle1_af2pred (protein) SDKRLAKNTAEAILRRTKELAKKAAAATAEEAKALAAIAEKGAKSAEAVAKKSGDEETKKLAKEAKEAAKKAKE", "inactive"],
  ["d8r1_design_ppi_178_dldesign_0_cycle1_af2pred (protein) ATEAVAQAIVLAAKRAAALPNAATAVANLAALVALLIEDPRVAEGAVEGAKEAAKALEAAGRTEEAKALLSAAEAAVAETAAKRA", "inactive"]
]}
